Test system: human OPN promoter (pOPN1-luc) in A549/OPNluc cells
assay.text: Luciferase assay: luciferase expression under control of OPN promoter
Type: cell-based
condition.label: Homo sapiens, A549, A549/OPNluc cells, 48±4 hours; read-out: EC50 (concentration for 50% inhibition of luciferase expression)
Note to self: use Criterion met only for EC50 readings below 20 µM; a reading exactly at 20 µM still gets Criterion not met.

Nc1c(O)cccc1C(=O)CCNC(=O)c1ccc(O)cc1: Criterion not met
COc1ccc(Oc2ccccc2C(=O)NCCNC(=O)c2ccc(O)cc2)cc1: Criterion not met
O=C(NCCc1c[nH]c2c(Oc3ccc(O)cc3)cccc12)c1ccc(O)cc1: Criterion not met

// switching to the query compound
Does the reported EC50 of CC(=O)NCCC(=O)c1cccc(Oc2ccc(O)cc2)c1N stay below 20 µM?
Criterion not met

----------
Test system: human OPN promoter (pOPN1-luc) in A549/OPNluc cells
assay.text: Luciferase assay: luciferase expression under control of OPN promoter
Type: cell-based
condition.label: EC50 corrected for decrease in viable cells (RLU % divided by WST %); read-out: corrected EC50
Description: A reporter vector pOPN1-luc obtained by the insertion of a human OPN promoter sequence (−765 to 23) into the multiple cloning site of pGL-3 basic vector (Promega) expresses luciferase when transfected into animal cells. […] The RLU values of the control wells and the sample wells at each concentration were input into an Excel file, and the percentages of RLU values of the sample wells at each concentration to the average RLU value of the control wells were determined. […]
outcome.measure: EC50
State the result as a value with its unit after it.

// fetch EC50 given entry O=C(CCC(=O)Nc1cccc(Oc2ccc(Cl)cc2)c1)Nc1ccc(O)cc1
50.9 µM

----------
Tested on: human OPN promoter (pOPN1-luc) in A549/OPNluc cells
assay.text: Luciferase assay: luciferase expression under control of OPN promoter
Assay type: cell-based
condition.label: Homo sapiens, A549, EC50 corrected for decrease in viable cells (RLU % divided by WST %); read-out: corrected EC50
outcome.measure: pEC50
Answers are plain numbers, as −log10 of the molar value.

Example entries and their recorded answers appear below.
O=C(CCNC(=O)c1cccs1)Nc1cccc(Oc2ccc(Cl)cc2)c1 [Compound 35]: 4.38
COc1ccc(Oc2cccc(NC(=O)CCNC(=O)c3ccc(O)cc3)c2)cc1 [Compound 26]: 4.57
O=C(Nc1cccc(Oc2ccc(Cl)cc2)c1)C1CCN(C(=O)c2ccc(O)cc2)C1 (centres unmarked) [Compound 32]: 5.03
Nc1c(Oc2ccc(O)cc2)cccc1C(=O)CCNC(=O)c1ccc(F)cc1 [Compound 9]: 4.18
O=C(CCNC(=O)c1ccsc1)Nc1cccc(Oc2ccc(Cl)cc2)c1 [Compound 36]: 4.51
O=C(CCNC(=O)c1ccncc1)Nc1cccc(Oc2ccc(Cl)cc2)c1 [Compound 37]: 4.68
COc1ccc(C(=O)NCCC(=O)c2cccc(Oc3ccc(O)cc3)c2N)cc1 [Compound 4]: 4.43
COc1ccc(Oc2ccccc2NC(=O)CNC(=O)c2ccc(O)cc2)cc1 [Compound 28]: 4.27
CC(=O)Nc1ccc(C(=O)NCCC(=O)c2cccc(Oc3ccc(Cl)cc3)c2N)cc1 [Compound 20]: 4.74
Cc1ccc(Oc2cccc(C(=O)CCNC(=O)c3ccc(O)cc3)c2N)cc1 [Compound 14]: 5.30

List reported pEC50 for each of these molecules:
1. O=C(Nc1cccc(Oc2ccc(Cl)cc2)c1)C1CCCN1C(=O)c1ccc(O)cc1 (centres unmarked) [Compound 34]
2. Nc1c(Oc2ccc(Cl)cc2)cccc1C(=O)CCNC(=O)c1ccc(O)cc1 [Compound 17]
3. O=C(NCCc1c[nH]c2c(Oc3ccc(O)cc3)cccc12)c1ccc(O)cc1 [Compound 2]

1. 4.48
2. 5.38
3. 4.22

# return pEC50 for each item in the list
1. O=C(Nc1cccc(Oc2ccc(Cl)cc2)c1)C1CCCN(C(=O)c2ccc(O)cc2)C1 (centres unmarked) [Compound 33]
2. COc1ccc(Oc2cccc(C(=O)CCNC(=O)c3ccc(O)cc3)c2N)cc1 [Compound 6]
3. O=C(CCNC(=O)c1ccc(O)cc1)Nc1cccc(Oc2ccc(Cl)c(Cl)c2)c1 [Compound 38]
4. COc1ccc(Oc2cccc(C(=O)NCCNC(=O)c3ccc(O)cc3)c2)cc1 [Compound 21]
5. COc1ccc(Oc2cccc(C(=O)CCNC(=O)c3ccc(OC)cc3)c2N)cc1 [Compound 5]
6. COc1ccc(Oc2ccc(NC(=O)CCNC(=O)c3ccc(O)cc3)cc2)cc1 [Compound 30]

1. 4.95
2. 4.99
3. 5.12
4. 4.77
5. 4.65
6. 4.90

Hi, could you look up pEC50 for each item in my list?
1. COc1ccc(Oc2cccc(NC(=O)CCCNC(=O)c3ccc(O)cc3)c2)cc1 [Compound 27]
2. Nc1ccc(C(=O)NCCC(=O)c2cccc(Oc3ccc(Cl)cc3)c2N)cc1 [Compound 19]
3. Nc1c(Oc2ccc(O)cc2)cccc1C(=O)CCNC(=O)c1ccc(O)cc1 [Compound 1]
4. O=C(Nc1cccc(Oc2ccc(Cl)cc2)c1)C1CN(C(=O)c2ccc(O)cc2)C1 [Compound 31]
5. O=C(CCNC(=O)c1ccc(O)cc1)Nc1cccc(Oc2ccc(Cl)cc2)c1 [Compound 24]
6. COc1cccc(C(=O)NCCC(=O)c2cccc(Oc3ccc(O)cc3)c2N)c1 [Compound 7]
7. COc1ccc(Oc2ccccc2NC(=O)CCNC(=O)c2ccc(O)cc2)cc1 [Compound 29]
8. O=C(NCCC(=O)c1cccc(O)c1O)c1ccc(Oc2ccc(O)cc2)cc1 [Compound 3]

1: 4.58; 2: 5.11; 3: 4.61; 4: 4.96; 5: 4.94; 6: 4.36; 7: 4.21; 8: 3.99

Batch request: pEC50 per item, same order as input.
1. Nc1c(Oc2ccc(C(F)(F)F)cc2)cccc1C(=O)CCNC(=O)c1ccc(O)cc1 [Compound 15]
2. O=C(CCC(=O)Nc1cccc(Oc2ccc(Cl)cc2)c1)Nc1ccc(O)cc1 [Compound 23]
3. Nc1c(Oc2ccc(O)cc2)cccc1C(=O)CCNC(=O)C1CCCCC1 [Compound 10]
4. COc1ccc(Oc2ccccc2C(=O)NCCNC(=O)c2ccc(O)cc2)cc1 [Compound 22]
5. COc1ccc(Oc2cccc(C(=O)CCNC(=O)c3ccc(O)cc3)c2N)cc1OC [Compound 16]

1: 5.28; 2: 4.08; 3: 4.38; 4: 4.30; 5: 4.90

Recorded values, source patent US11040937B2.
